Cited source for all entries: patent US12522597B2

Readings of Papp A→B at 120 min, 5 μM for the listed compounds
# System: MDR1
# assay-remarks: MDCK-MDR1 permeability assay (BBB penetration potential)
# Type: in vitro ADME
# experimental-setup: dog, MDCK-MDR1, pH 7.4, MDCK-MDR1: Papp A-B
Value expressed in nm/s; do not type the unit.

Some compounds with known Papp A→B at 120 min, 5 μM results, for comparison:
# compound, endpoint, assay-value
data = [
    ("Cn1cc(-c2cc(O)c(-c3ccc(O[C@H]4C[C@@H]5CCC(N5)[C@H]4F)nn3)cn2)cn1 (single isomer, unassigned) [63-ENT2]", "Papp A→B at 120 min, 5 μM", 2.6),
    ("Cc1nnc(-c2ccc(-c3ccc(O[C@H]4C[C@@H]5CCC[C@@H](N5)[C@H]4F)nn3)c(O)c2)s1 (single isomer, unassigned) [95-ENT2]", "Papp A→B at 120 min, 5 μM", 35.9),
    ("Cn1cc(-c2ccc(-c3ccc(O[C@H]4C[C@@H]5CCC[C@@H](N5)[C@H]4F)nn3)c(O)c2)c(F)n1 (single isomer, unassigned) [109-ENT2]", "Papp A→B at 120 min, 5 μM", 63),
    ("Cc1ccc(-c2ccc(-c3ccc(O[C@@H]4C[C@H]5CCC[C@H](N5)[C@@H]4F)nn3)c(O)c2)s1 (single isomer, unassigned) [100-ENT1]", "Papp A→B at 120 min, 5 μM", 9.9),
]

Papp A→B at 120 min, 5 μM reported for this compound Cc1nocc1-c1ccc(-c2ccc(O[C@H]3C[C@@H]4CCC[C@@H](N4)[C@H]3F)nn2)c(O)c1 (single isomer, unassigned) [72-ENT2] : 46.7

Reported Papp A→B at 120 min, 5 μM of Cn1cc(-c2ccc(-c3ccc(O[C@H]4C[C@]5(C)CC[C@@](C)(N5)[C@H]4F)nn3)c(O)c2)cn1 (single isomer, unassigned) [150-ENT1] : 75.5

====

# Tested on: MDR1-MDCK cell monolayers
# assay-remarks: MDCK-MDR1 permeability assay (BBB penetration potential)
# Format: in vitro ADME
# experimental-setup: dog, MDCK-MDR1, 120 min, 5 μM, pH 7.4
endpoint: MDCK-MDR1: % Recov B-A (%)
I only need the number, in %, no unit after it.

# compound, unit-label, assay-value
rows = [
    ("Cn1cc(-c2ccc(-c3ccc(O[C@H]4C[C@@H]5CC[C@@H](N5)[C@H]4F)nn3)c(O)c2)cn1 (single isomer, unassigned)", "%", 78),
    ("Oc1cc(-c2nncs2)ccc1-c1ccc(O[C@@H]2C[C@H]3CCC[C@H](N3)[C@@H]2F)nn1 (single isomer, unassigned)", "%", 91),
    ("Cn1ccc(=O)c2cc(O)c(-c3ccc(O[C@H]4C[C@]5(C)CCC[C@@](C)(N5)[C@H]4F)nn3)cc21 (stereo in doubt) [132-ENT2]", "%", 95),
    ("Cn1c(=O)oc2cc(-c3ccc(O[C@@H]4C[C@H]5CCC[C@H](N5)[C@@H]4F)nn3)c(O)cc21 (single isomer, unassigned)", "%", 88),
]

For this compound ( Cn1cc(-c2ccc(-c3ccc(O[C@@H]4C[C@H]5CCC[C@H](N5)[C@H]4F)nn3)c(O)c2)cn1 (single isomer, unassigned) ), measured MDCK-MDR1: % Recov B-A is 82

The compound identified as Oc1cc(-n2ccnc2)ccc1-c1ccc(O[C@H]2C[C@@H]3CC(F)(F)[C@H](C2)N3)nn1 (single isomer, unassigned) registered its MDCK-MDR1: % Recov B-A at 90

====

MDCK-MDR1: % Recov B-A: recorded values
# Tested on: MDR1-MDCK cell monolayers
# assay-remarks: MDCK-MDR1 permeability assay (BBB penetration potential)
# Assay type: in vitro ADME
# experimental-setup: dog, MDCK-MDR1, 120 min, 5 μM, pH 7.4
Hi! Could you send only the number? It should be in %, unit omitted.

Worked examples, 6 compounds total:
# compound, assay-value
measured = [
    ("Cn1cc(-c2cc(O)c(-c3ccc(O[C@@H]4C[C@H]5CCC[C@H](N5)[C@@H]4F)nn3)cn2)cn1 (single isomer, unassigned) [64-ENT1]", 101),
    ("Oc1cc(-c2ccc3nncn3c2)ccc1-c1ccc(O[C@@H]2C[C@H]3CCC[C@H](N3)[C@@H]2F)nn1 (single isomer, unassigned) [73-ENT1]", 85),
    ("Cc1cncc(-c2ccc(-c3ccc(O[C@H]4C[C@@H]5CCC[C@@H](N5)[C@H]4F)nn3)c(O)c2)n1 (single isomer, unassigned) [102-ENT2]", 89),
    ("Cn1ccc2cc(-c3ccc(O[C@H]4CC5CCC[C@@H](N5)[C@H]4F)nn3)c(O)cc2c1=O (single isomer, unassigned) [125-ENT1]", 91),
    ("Cn1cc(-c2ccc(-c3ccc(O[C@H]4C[C@@H]5CCC[C@@H](N5)[C@H]4F)nn3)c(O)c2F)cn1 (single isomer, unassigned) [119-ENT2]", 64),
    ("Cc1cncc(-c2ccc(-c3ccc(O[C@@H]4C[C@H]5CCC[C@H](N5)[C@@H]4F)nn3)c(O)c2)c1 (single isomer, unassigned) [89-ENT1]", 76),
]

Entry Cn1cc(-c2cc(O)c(-c3ccc(O[C@H]4C[C@@H]5CCC[C@@H](N5)[C@H]4F)nn3)cn2)cn1 (single isomer, unassigned) [64-ENT2] — recorded MDCK-MDR1: % Recov B-A = 97

Briefly, MDCK-MDR1: % Recov B-A measured for CNC(=O)c1ccc2cc(-c3ccc(O[C@@H]4C[C@H]5CCC[C@H](N5)[C@@H]4F)nn3)c(O)cc2n1 (single isomer, unassigned) [136-ENT2] : 93

The measured MDCK-MDR1: % Recov B-A associated with Oc1cc(-c2cn[nH]c2)ccc1-c1ccc(O[C@@H]2C[C@H]3COC[C@H](N3)[C@@H]2F)nn1 (single isomer, unassigned) [123-ENT1] reads 90

Given item Oc1cc(-c2cnn3ccccc23)ccc1-c1ccc(O[C@H]2C[C@@H]3CCC[C@@H](N3)[C@H]2F)nn1 (single isomer, unassigned) [91-ENT2] , the value recorded as its MDCK-MDR1: % Recov B-A is 48

Kindly note the recorded MDCK-MDR1: % Recov B-A for Cc1ncc(-c2ccc(-c3ccc(O[C@H]4C[C@@H]5CCC[C@@H](N5)[C@H]4F)nn3)c(O)c2)o1 (single isomer, unassigned) [93-ENT2] , which is 88

The reported MDCK-MDR1: % Recov B-A of the compound Cc1nnc(-c2ccc(-c3ccc(O[C@H]4C[C@@H]5CCC[C@@H](N5)[C@H]4F)nn3)c(O)c2)s1 (single isomer, unassigned) [95-ENT2] was 87

====

Recorded Papp B→A at 120 min, 5 μM for the following compounds
# System: MDR1
# assay-remarks: MDCK-MDR1 permeability assay (BBB penetration potential)
# Assay type: in vitro ADME
# experimental-setup: dog, MDCK-MDR1, pH 7.4, MDCK-MDR1: Papp B-A
# Description: Each determination is performed in duplicate. […] Analytical conditions are outlined below.
Expressed in ×10⁻⁶ cm/s, but write only the number.

Some solved entries appear below for comparison.
# compound, assay-system, Papp B→A at 120 min, 5 μM (×10⁻⁶ cm/s)
records = [
    ("Cn1ccc2cc(-c3ccc(O[C@@H]4C[C@H]5CCC[C@H](N5)[C@@H]4F)nn3)c(O)cc2c1=O (single isomer, unassigned)", "MDR1", 52),
    ("Oc1cc(-c2ccc3nncn3c2)ccc1-c1ccc(O[C@H]2C[C@@H]3CCC[C@@H](N3)[C@H]2F)nn1 (single isomer, unassigned)", "MDR1", 41.3),
    ("Cc1cc(-c2ccc(-c3ccc(O[C@@H]4C[C@H]5CCC[C@H](N5)[C@@H]4F)nn3)c(O)c2)cnn1 (single isomer, unassigned)", "MDR1", 60.5),
]

Reported Papp B→A at 120 min, 5 μM ( Cc1cc(-c2ccc(-c3ccc(O[C@H]4C[C@@H]5CCC[C@@H](N5)[C@H]4F)nn3)c(O)c2)cs1 (single isomer, unassigned) ) = 0.55

====

# System: MDR1
# assay-remarks: MDCK-MDR1 permeability assay (BBB penetration potential)
# Assay type: in vitro ADME
# experimental-setup: dog, MDCK-MDR1, pH 7.4, MDCK-MDR1: Papp A-B
endpoint: Papp A→B at 120 min, 5 μM (nm/s)
Answer in nm/s, number only, no unit symbol.

// Papp A→B at 120 min, 5 μM (MDR1) for Cn1cc(-c2cc(O)c(-c3ccc(O[C@@H]4CC5CC[C@H](N5)[C@@H]4F)nn3)cn2)cn1 (single isomer, unassigned) = 2.9

// Papp A→B at 120 min, 5 μM (MDR1) for Cc1nc(-c2ccc(-c3ccc(O[C@@H]4C[C@H]5CCC[C@H](N5)[C@@H]4F)nn3)c(O)c2)co1 (single isomer, unassigned) = 59.9
